target system: human RORγt LBD (Homo sapiens (Human), UniProt P51449)
Sequence (P51449 258-518): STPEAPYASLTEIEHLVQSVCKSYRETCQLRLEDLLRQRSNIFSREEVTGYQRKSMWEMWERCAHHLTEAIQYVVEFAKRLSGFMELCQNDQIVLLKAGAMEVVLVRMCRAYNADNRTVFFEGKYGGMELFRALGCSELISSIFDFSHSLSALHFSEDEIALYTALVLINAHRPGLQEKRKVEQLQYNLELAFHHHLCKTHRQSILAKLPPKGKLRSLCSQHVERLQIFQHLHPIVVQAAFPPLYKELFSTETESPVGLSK
test details: RORγt reporter assay (GAL4-RORγt LBD luciferase, HEK293T cells)
Assay type: cell-based
reported conditions: HEK-293T, read-out: RORγt reporter Assay, % inhibition @ 6 μM, 6 μM, HEK293T cells
parameter measured: inhibition at 6 µM (%)

Some entries whose results are on file:
[
  {
    "compound": "CCN(CC)c1nc2ccc(C(O)(c3ccc(C(F)(F)F)nc3)c3cncn3C)cc2c(Cl)c1Oc1ccc(F)cc1 (stereo not shown) [Example 9a]",
    "inhibition at 6 µM (%)": 97
  },
  {
    "compound": "CCN(CC)c1nc2ccc(C(O)(c3ccc(Cl)cc3)c3cncn3C)cc2c(Cl)c1N(C(=O)OC(C)(C)C)c1ccccc1 (stereo not shown) [Example 44]",
    "inhibition at 6 µM (%)": 62
  },
  {
    "compound": "COCCN(C)c1nc2ccc(C(O)(c3ccc(C(F)(F)F)nc3)c3cncn3C)cc2c(Cl)c1Oc1ccccc1 (stereo not shown) [Example 34]",
    "inhibition at 6 µM (%)": 95
  },
  {
    "compound": "COc1ccc(C(O)(c2ccc3nc(N(C)C)c(Oc4ccccc4)c(Cl)c3c2)c2cncn2C)cn1 (stereo not shown) [Example 17]",
    "inhibition at 6 µM (%)": 99
  },
  {
    "compound": "Cn1cncc1C(O)(c1ccc(C(F)(F)F)nc1)c1ccc2nc(N3CCC3)c(Oc3ccc(Cl)cc3)c(Cl)c2c1 (stereo not shown) [Example 30a]",
    "inhibition at 6 µM (%)": 93
  },
  {
    "compound": "Cn1cncc1C(O)(c1ccc(C(F)(F)F)nc1)c1ccc2nc(C#N)c(Oc3ccc(Cl)cc3)c(C(F)(F)F)c2c1 (stereo not shown) [Example 24]",
    "inhibition at 6 µM (%)": 55
  }
]

(a) CCOc1nc2ccc(C(O)(c3ccc(C(F)(F)F)nc3)c3cncn3C)cc2c(C(F)(F)F)c1Oc1ccc(Cl)cc1 (stereo not shown) [Example 25a]
(b) Cn1cncc1C(O)(c1ccc(C(F)(F)F)nc1)c1ccc2nc(Cl)c(Oc3ccc(Cl)cc3)c(C(F)(F)F)c2c1 (stereo not shown) [Example 46]
Task for the reader: decide whether a or b has the larger inhibition at 6 µM. I would appreciate it if you answered with the label of your choice.
a
(a: 75%, b: 39%)

(1) Cn1cncc1C(O)(c1ccc(Cl)cc1)c1ccc2nc(C#N)c(Oc3ccccc3)c(Cl)c2c1 (stereo not shown) [Example 19]
(2) CCOc1nc2ccc(C(O)(c3ccc(C(F)(F)F)nc3)c3cncn3C)cc2c(Cl)c1Oc1ccc(F)cc1 (stereo not shown) [Example 14a]
Would you let me know which has the greater inhibition at 6 µM value, 1 or 2 ? Indicate your choice by writing its label.
1
(1: 85%, 2: 55%)
